# CONDITIONS USED: in n-butyl acetate, 308.15 K
READOUT LABEL: solubility (mole fraction)

{"ENTRY SMILES": "O=C(N[C@@H](Cc1ccc(O)cc1)C(=O)O)OCC1c2ccccc2-c2ccccc21", "READOUT LABEL": "solubility (mole fraction)", "REPORTED": 0.00765}

----------
# CONDITIONS USED: in isopropanol, 308.15 K
READOUT LABEL: solubility (mole fraction)

{"ENTRY SMILES": "O=C(N[C@@H](Cc1ccc(O)cc1)C(=O)O)OCC1c2ccccc2-c2ccccc21", "REPORTED": 0.027}

----------
# CONDITIONS USED: in n-butyl acetate, 303.15 K
READOUT LABEL: solubility (mole fraction)

{"ENTRY SMILES": "O=C(N[C@@H](Cc1ccc(O)cc1)C(=O)O)OCC1c2ccccc2-c2ccccc21", "READOUT LABEL": "solubility (mole fraction)", "REPORTED": 0.00688}

----------
# CONDITIONS USED: in n-butyl acetate, 328.15 K

{"ENTRY SMILES": "O=C(N[C@@H](Cc1ccc(O)cc1)C(=O)O)OCC1c2ccccc2-c2ccccc21", "solubility (mole fraction)": 0.0118}

----------
# CONDITIONS USED: in n-butyl acetate, 298.15 K
READOUT LABEL: solubility (mole fraction)

{"ENTRY SMILES": "O=C(N[C@@H](Cc1ccc(O)cc1)C(=O)O)OCC1c2ccccc2-c2ccccc21", "REPORTED": 0.00636}

----------
# CONDITIONS USED: in n-pentanol, 318.15 K

{"ENTRY SMILES": "O=C(N[C@@H](Cc1ccc(O)cc1)C(=O)O)OCC1c2ccccc2-c2ccccc21", "solubility (mole fraction)": 0.0231}

----------
# CONDITIONS USED: in isopropanol, 318.15 K

{"ENTRY SMILES": "O=C(N[C@@H](Cc1ccc(O)cc1)C(=O)O)OCC1c2ccccc2-c2ccccc21", "solubility (mole fraction)": 0.0385}

----------
# CONDITIONS USED: in n-pentanol, 313.15 K

{"ENTRY SMILES": "O=C(N[C@@H](Cc1ccc(O)cc1)C(=O)O)OCC1c2ccccc2-c2ccccc21", "solubility (mole fraction)": 0.02}

----------
# CONDITIONS USED: in n-propyl acetate, 318.15 K

{"ENTRY SMILES": "O=C(N[C@@H](Cc1ccc(O)cc1)C(=O)O)OCC1c2ccccc2-c2ccccc21", "solubility (mole fraction)": 0.0108}

----------
# CONDITIONS USED: in ethyl acetate, 323.15 K
READOUT LABEL: solubility (mole fraction)

{"ENTRY SMILES": "O=C(N[C@@H](Cc1ccc(O)cc1)C(=O)O)OCC1c2ccccc2-c2ccccc21", "REPORTED": 0.0203}

----------
# CONDITIONS USED: in isopropanol, 323.15 K

{"ENTRY SMILES": "O=C(N[C@@H](Cc1ccc(O)cc1)C(=O)O)OCC1c2ccccc2-c2ccccc21", "solubility (mole fraction)": 0.043}

----------
# CONDITIONS USED: in n-butyl acetate, 318.15 K

{"ENTRY SMILES": "O=C(N[C@@H](Cc1ccc(O)cc1)C(=O)O)OCC1c2ccccc2-c2ccccc21", "solubility (mole fraction)": 0.00933}

----------
# CONDITIONS USED: in isobutanol, 298.15 K

{"ENTRY SMILES": "O=C(N[C@@H](Cc1ccc(O)cc1)C(=O)O)OCC1c2ccccc2-c2ccccc21", "solubility (mole fraction)": 0.00685}

----------
# CONDITIONS USED: in acetonitrile, 323.15 K

{"ENTRY SMILES": "O=C(N[C@@H](Cc1ccc(O)cc1)C(=O)O)OCC1c2ccccc2-c2ccccc21", "solubility (mole fraction)": 0.00637}

----------
# CONDITIONS USED: in n-propyl acetate, 298.15 K

{"ENTRY SMILES": "O=C(N[C@@H](Cc1ccc(O)cc1)C(=O)O)OCC1c2ccccc2-c2ccccc21", "solubility (mole fraction)": 0.00799}

----------
# CONDITIONS USED: in acetone, 293.15 K

{"ENTRY SMILES": "O=C(N[C@@H](Cc1ccc(O)cc1)C(=O)O)OCC1c2ccccc2-c2ccccc21", "solubility (mole fraction)": 0.0683}

----------
# CONDITIONS USED: in isopropanol, 298.15 K

{"ENTRY SMILES": "O=C(N[C@@H](Cc1ccc(O)cc1)C(=O)O)OCC1c2ccccc2-c2ccccc21", "solubility (mole fraction)": 0.0179}

----------
# CONDITIONS USED: in isopropanol, 313.15 K
READOUT LABEL: solubility (mole fraction)

{"ENTRY SMILES": "O=C(N[C@@H](Cc1ccc(O)cc1)C(=O)O)OCC1c2ccccc2-c2ccccc21", "REPORTED": 0.0307}

----------
# CONDITIONS USED: in ethyl acetate, 298.15 K

{"ENTRY SMILES": "O=C(N[C@@H](Cc1ccc(O)cc1)C(=O)O)OCC1c2ccccc2-c2ccccc21", "solubility (mole fraction)": 0.0135}

----------
# CONDITIONS USED: in n-propyl acetate, 313.15 K

{"ENTRY SMILES": "O=C(N[C@@H](Cc1ccc(O)cc1)C(=O)O)OCC1c2ccccc2-c2ccccc21", "solubility (mole fraction)": 0.0104}

----------
# CONDITIONS USED: in dimethyl carbonate, 293.15 K
READOUT LABEL: solubility (mole fraction)

{"ENTRY SMILES": "O=C(N[C@@H](Cc1ccc(O)cc1)C(=O)O)OCC1c2ccccc2-c2ccccc21", "REPORTED": 0.00346}

----------
# CONDITIONS USED: in acetone, 303.15 K
READOUT LABEL: solubility (mole fraction)

{"ENTRY SMILES": "O=C(N[C@@H](Cc1ccc(O)cc1)C(=O)O)OCC1c2ccccc2-c2ccccc21", "READOUT LABEL": "solubility (mole fraction)", "REPORTED": 0.077}

----------
# CONDITIONS USED: in n-butanol, 298.15 K
READOUT LABEL: solubility (mole fraction)

{"ENTRY SMILES": "O=C(N[C@@H](Cc1ccc(O)cc1)C(=O)O)OCC1c2ccccc2-c2ccccc21", "READOUT LABEL": "solubility (mole fraction)", "REPORTED": 0.0151}

----------
# CONDITIONS USED: in dimethyl carbonate, 323.15 K
READOUT LABEL: solubility (mole fraction)

{"ENTRY SMILES": "O=C(N[C@@H](Cc1ccc(O)cc1)C(=O)O)OCC1c2ccccc2-c2ccccc21", "READOUT LABEL": "solubility (mole fraction)", "REPORTED": 0.00747}

----------
# CONDITIONS USED: in sec-butanol, 323.15 K

{"ENTRY SMILES": "O=C(N[C@@H](Cc1ccc(O)cc1)C(=O)O)OCC1c2ccccc2-c2ccccc21", "solubility (mole fraction)": 0.0454}

----------
# CONDITIONS USED: in isobutanol, 293.15 K
READOUT LABEL: solubility (mole fraction)

{"ENTRY SMILES": "O=C(N[C@@H](Cc1ccc(O)cc1)C(=O)O)OCC1c2ccccc2-c2ccccc21", "READOUT LABEL": "solubility (mole fraction)", "REPORTED": 0.00543}

----------
# CONDITIONS USED: in ethyl acetate, 303.15 K

{"ENTRY SMILES": "O=C(N[C@@H](Cc1ccc(O)cc1)C(=O)O)OCC1c2ccccc2-c2ccccc21", "solubility (mole fraction)": 0.014}

----------
# CONDITIONS USED: in n-butanol, 333.15 K
READOUT LABEL: solubility (mole fraction)

{"ENTRY SMILES": "O=C(N[C@@H](Cc1ccc(O)cc1)C(=O)O)OCC1c2ccccc2-c2ccccc21", "READOUT LABEL": "solubility (mole fraction)", "REPORTED": 0.0463}

----------
# CONDITIONS USED: in ethyl acetate, 293.15 K
READOUT LABEL: solubility (mole fraction)

{"ENTRY SMILES": "O=C(N[C@@H](Cc1ccc(O)cc1)C(=O)O)OCC1c2ccccc2-c2ccccc21", "READOUT LABEL": "solubility (mole fraction)", "REPORTED": 0.0129}

----------
# CONDITIONS USED: in dimethyl carbonate, 308.15 K
READOUT LABEL: solubility (mole fraction)

{"ENTRY SMILES": "O=C(N[C@@H](Cc1ccc(O)cc1)C(=O)O)OCC1c2ccccc2-c2ccccc21", "REPORTED": 0.00477}

----------
# CONDITIONS USED: in n-butyl acetate, 313.15 K
READOUT LABEL: solubility (mole fraction)

{"ENTRY SMILES": "O=C(N[C@@H](Cc1ccc(O)cc1)C(=O)O)OCC1c2ccccc2-c2ccccc21", "REPORTED": 0.00862}
